Values from ChEMBL document CHEMBL5532661

Biological target: Glucagon-like peptide 1 receptor (Homo sapiens, UniProt P43220)
Sequence (P43220 whole entry): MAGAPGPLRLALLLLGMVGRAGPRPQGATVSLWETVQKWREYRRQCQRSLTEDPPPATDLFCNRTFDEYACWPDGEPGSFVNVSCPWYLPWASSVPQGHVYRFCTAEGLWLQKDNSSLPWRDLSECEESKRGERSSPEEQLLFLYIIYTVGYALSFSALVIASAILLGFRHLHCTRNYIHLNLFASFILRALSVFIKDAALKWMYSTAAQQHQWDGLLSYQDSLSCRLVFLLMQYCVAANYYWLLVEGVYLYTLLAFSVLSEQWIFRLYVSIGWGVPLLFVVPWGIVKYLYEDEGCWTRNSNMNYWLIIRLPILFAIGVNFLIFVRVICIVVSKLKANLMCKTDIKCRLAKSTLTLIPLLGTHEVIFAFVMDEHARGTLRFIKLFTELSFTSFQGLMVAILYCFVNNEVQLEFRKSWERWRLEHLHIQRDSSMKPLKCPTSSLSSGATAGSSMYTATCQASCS
Test: Agonist activity at human GLP-1 receptor expressed in HEK293 cells assessed as cAMP level by measuring relative percent (GLP-1 EC50/compound EC50) measured after 60 mins by HTRF based assay relative to GLP-1
Format: functional, cell-based
Conditions: filed as agonist
The entries below are paired with their reported Activity.

>  <substance>
H-HSQGTFTSDMSSYLDSRRAQDFVDWLMNTKRNRNNIA-NH2

>  <measurement_target>
Glucagon-like peptide 1 receptor (Homo sapiens, UniProt P43220)

>  <Activity, %>
45

$$$$
>  <substance>
H-HSQGTFTSDMSKYLDSRRAQDFVDWLKNGGPSSGAPPPS-NH2

>  <measurement_target>
Glucagon-like peptide 1 receptor (Homo sapiens, UniProt P43220)

>  <Activity, %>
331

$$$$
>  <substance>
H-HSQGTFTSDMSSYLDSRRAQDFVDWLKNGGPSSGAPPPS-NH2

>  <measurement_target>
Glucagon-like peptide 1 receptor (Homo sapiens, UniProt P43220)

>  <Activity, %>
87

$$$$
>  <substance>
H-HSQGTFTSDMSKYLDSRRAQDFVDWLIKGRNRNNIA-NH2

>  <measurement_target>
Glucagon-like peptide 1 receptor (Homo sapiens, UniProt P43220)

>  <Activity, %>
58

$$$$
>  <substance>
H-HSQGTFTSDMSKYLDSRRAQDFVDWLIKGRPSSGAPPPS-NH2

>  <measurement_target>
Glucagon-like peptide 1 receptor (Homo sapiens, UniProt P43220)

>  <Activity, %>
41

$$$$
